test system: 695427-040-R-J1-PDC complex spheroid viability; experiment: Anticancer human tumor 695427-040-R-J1-PDC patient-derived colon adenocarcinoma cell line growth inhibition [POLQ]; details: second compound 0.316 µM; first compound 0.1 µM; hits give low values
Decide using viability, T/C alone. Strictly below 80%: Yes. Equal to or above 80%: No.

compound	measured_on	assigned_class
C#Cc1c(F)ccc2cc(O)cc(-c3ncc4c(N5CC6CCC(C5)N6)nc(OCC56CCCN5CC(F)C6)nc4c3F)c12 (stereo not given) + Nc1ccc(C#CCN(C(=O)Cc2ncc(C(F)(F)F)cc2C(F)(F)F)c2ccc(F)cc2)nn1	695427-040-R-J1-PDC complex spheroid viability	No
COc1cccc(OCCCN)c1-c1cc(Nc2cnc(C#N)cn2)n[nH]1 + Cc1cccc(N(C)C(=O)C2C(O)CCN2c2nc(C)cc(C(F)(F)F)c2C#N)c1	695427-040-R-J1-PDC complex spheroid viability	Yes
CCc1cc2c(N3CCc4c(cc(Cn5ccnc5)cc4-c4cn(C)nc4C(F)(F)F)C3=O)ccnc2c(OC)n1 + COC1C(OC(N)=O)C(O)C(Oc2ccc3c(O)c(NC(=O)c4ccc(O)c(CC=C(C)C)c4)c(=O)oc3c2C)OC1(C)C	695427-040-R-J1-PDC complex spheroid viability	No

Please examine the following record next.
Does the reported viability, T/C of CC1COCCN1c1cc(C2(O)CC3CCC(C2)O3)c2cnn(-c3ccn[nH]3)c2n1 (stereo not given) + Cc1cccc(N(C)C(=O)C2C(O)CCN2c2nc(C)cc(C(F)(F)F)c2C#N)c1 stay below 80%?
No

* * *

Reported viability, T/C values are given for each entry in this list.
tested on: 695427-040-R-J1-PDC complex spheroid viability; assay: Anticancer human tumor 695427-040-R-J1-PDC cell line growth inhibition [POLQ]; conditions: second compound 0.0316 µM; first compound 3.16 µM; hits give low values;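 also: spheroids exposed to compounds for seven days; 100% = DMSO vehicle control viability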

Given the compound CCc1cc2c(N3CCc4c(cc(Cn5ccnc5)cc4-c4cn(C)nc4C(F)(F)F)C3=O)cc(C)nc2c(OC)n1 + Cc1cccc(N(C)C(=O)C2C(O)CCN2c2nc(C)cc(C(F)(F)F)c2C#N)c1 , write its reported viability, T/C.
108%

Given the compound COc1cccc2c1C(=O)c1c(O)c3c(c(O)c1C2=O)CC(O)(C(=O)CO)CC3OC1CC(N)C(O)C(C)O1 (stereo not given) + Cc1cccc(N(C)C(=O)C2C(O)CCN2c2nc(C)cc(C(F)(F)F)c2C#N)c1 , write its reported viability, T/C.
67.7%

Given the compound CCCS(=O)(=O)Nc1ccc(F)c(C(=O)c2c[nH]c3ncc(-c4ccc(Cl)cc4)cc23)c1F + Cc1cccc(N(C)C(=O)C2C(O)CCN2c2nc(C)cc(C(F)(F)F)c2C#N)c1 , write its reported viability, T/C.
116%

Given the compound O=C(Nc1ccc(O)c(NS(=O)(=O)c2ccc(F)cc2)c1)c1ccc(-c2ccccc2)cc1 + Cc1cccc(N(C)C(=O)C2C(O)CCN2c2nc(C)cc(C(F)(F)F)c2C#N)c1 , write its reported viability, T/C.
108%

Given the compound O=c1[nH]cc(F)c(=O)[nH]1 + Nc1ccc(C#CCN(C(=O)Cc2ncc(C(F)(F)F)cc2C(F)(F)F)c2ccc(F)cc2)nn1 , write its reported viability, T/C.
112%

* * *

Reported viability, T/C values are given for each entry in this list.
test system: 695427-040-R-J1-PDC complex spheroid viability; assay: Anticancer human tumor 695427-040-R-J1-PDC cell line growth inhibition [POLQ]; details: second compound 10 µM; first compound 10 µM; hits give low values;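 also: spheroids exposed to compounds for seven days; 100% = DMSO vehicle control viability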
Give your result in % as a bare value.

A selection of reference data follows.
molecule	measured_on	measurement_units	viability, T/C
CC1COCCN1c1cc(C2(S(C)(=N)=O)CC2)nc(-c2ccnc3[nH]ccc23)n1 (centres undefined) + Cc1cccc(N(C)C(=O)C2C(O)CCN2c2nc(C)cc(C(F)(F)F)c2C#N)c1	695427-040-R-J1-PDC complex spheroid viability	%	67.1
C=CC(=O)N1CCN(c2nc(=O)n(-c3c(C)ccnc3C(C)C)c3nc(-c4c(O)cccc4F)c(F)cc23)C(C)C1 (centres undefined) + Nc1ccc(C#CCN(C(=O)Cc2ncc(C(F)(F)F)cc2C(F)(F)F)c2ccc(F)cc2)nn1	695427-040-R-J1-PDC complex spheroid viability	%	97.6
C#Cc1c(F)ccc2cc(O)cc(-c3ncc4c(N5CC6CCC(C5)N6)nc(OCC56CCCN5CC(F)C6)nc4c3F)c12 (centres undefined) + Nc1ccc(C#CCN(C(=O)Cc2ncc(C(F)(F)F)cc2C(F)(F)F)c2ccc(F)cc2)nn1	695427-040-R-J1-PDC complex spheroid viability	%	69.3

Given the molecule Nc1ccn(C2OC(CO)C(O)C2(F)F)c(=O)n1 (centres undefined) + Nc1ccc(C#CCN(C(=O)Cc2ncc(C(F)(F)F)cc2C(F)(F)F)c2ccc(F)cc2)nn1 , write its reported viability, T/C.
73.9

Source listed as PubChem BioAssay AID1963840.
